Entries and their MIC values follow.
test system: Pseudomonas BRK 12-4-4; test: in vitro antibacterial activity, minimal inhibitory concentration; assay type: cell-based; settings: BRK1244; Pseudomonas BRK 12-4-4, in vitro
Dear colleague, please send the value followed by its unit.

Worked cases, MIC given:
[[record]]
compound = "CC(=O)NC(C)C(=O)Nc1ccc(-c2ncc(C(=O)N[C@@H](C(=O)N[C@@H]3C(=O)N4C(C(=O)O)=C(COC(N)=O)CS[C@H]34)c3ccccc3)c(O)n2)cc1 (mixture of isomers) [Example 20]"
value_observed = "12.5 µg/mL"

[[record]]
compound = "O=C(O)Cn1nnnc1SCC1=C(C(=O)O)N2C(=O)C(NC(=O)[C@H](NC(=O)c3cnc(-c4ccc(NC(=O)CN5CCCC5=O)cc4)nc3O)c3ccccc3)C2SC1 (stereo partly drawn) [Example 42]"
value_observed = "12.5 µg/mL"

[[record]]
compound = "CC(=O)NC(C)C(=O)Nc1ccc(-c2ncc(C(=O)N[C@@H](C(=O)NC3C(=O)N4C(C(=O)O)=C(CSc5nnnn5C)CSC34)c3ccccc3)c(O)n2)cc1 (mixture of isomers) [Example 24]"
value_observed = "12.5 µg/mL"

[[record]]
compound = "CC(=O)N[C@H](C)C(=O)Nc1ccc(-c2ncc(C(=O)N[C@@H](C(=O)NC3C(=O)N4C(C(=O)O)=C(CSc5nnnn5CC(=O)O)CSC34)c3ccc(O)cc3)c(O)n2)cc1 (stereo partly drawn) [Example 37]"
value_observed = "12.5 µg/mL"

[[record]]
compound = "CC(=O)N[C@H](C)C(=O)Nc1ccc(-c2ncc(C(=O)N[C@@H](C(=O)N[C@@H]3C(=O)N4C(C(=O)O)=C(COC(C)=O)CS[C@H]34)c3ccccc3)c(O)n2)cc1 [Example 1]"
value_observed = "3.1 µg/mL"


// field: MIC; key: CC(=O)N[C@H](C)C(=O)Nc1ccc(-c2ncc(C(=O)N[C@@H](C(=O)N[C@@H]3C(=O)N4C(C(=O)O)=C(COC(N)=O)CS[C@H]34)c3ccccc3)c(O)n2)cc1 [Example 21] ; value = 12.5 µg/mL

###

system: Pseudomonas BRK 12-4-4; experiment: in vitro antibacterial activity, minimal inhibitory concentration; format: cell-based; conditions: BRK1244; Pseudomonas BRK 12-4-4, in vitro
Reported values of MIC for individual entries
All answers are understood in µg/mL, so give the number only.

# example entries with known answers
[[record]]
compound = "NC(=O)CC[C@H](N)C(=O)Nc1ccc(-c2ncc(C(=O)N[C@@H](C(=O)NC3C(=O)N4C(C(=O)O)=C(CSc5nnnn5CC(=O)O)CSC34)c3ccccc3)c(O)n2)cc1 (some centres unmarked)"
units_label = "µg/mL"
value_observed = 12.5

[[record]]
compound = "CC(=O)N[C@H](C)C(=O)Nc1ccc(-c2ncc(C(=O)N[C@@H](C(=O)NC3C(=O)N4C(C(=O)O)=C(CSc5nnnn5C)CSC34)c3ccc(O)cc3)c(O)n2)cc1 (some centres unmarked)"
units_label = "µg/mL"
value_observed = 3.1


MIC on Pseudomonas BRK 12-4-4 for CC(=O)NC(C)C(=O)Nc1ccc(-c2ncc(C(=O)N[C@@H](C(=O)NC3C(=O)N4C(C(=O)O)=C(CSc5nnnn5C)CSC34)c3ccc(O)cc3)c(O)n2)cc1 (mixture of isomers) is 6.3

Readout MIC for CC(=O)OCC1=C(C(=O)O)N2C(=O)[C@@H](NC(=O)[C@H](NC(=O)c3cnc(-c4ccc(NC(=O)C5CCCN5C(C)=O)cc4)nc3O)c3ccccc3)[C@H]2SC1 (mixture of isomers) , test system Pseudomonas BRK 12-4-4, was 12.5

Reading of MIC for CC(=O)NCC(=O)Nc1ccc(-c2ncc(C(=O)N[C@@H](C(=O)NC3C(=O)N4C(C(=O)O)=C(CSc5nnnn5C)CSC34)c3ccccc3)c(O)n2)cc1 (some centres unmarked) with Pseudomonas BRK 12-4-4: 12.5
